# TEST: OD615 S. cerevisiae growth inhibition, permissive medium, pilot counter-assay, permissive growth control for S. cerevisiae lifespan shortening project (AID 705)
# TEST_CONDITIONS: OD615, 24 h, at 10 µM, hits give high values
Active and inactive are the calls of the source.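 Rule for the calls: active = growth inhibition above 25% in both replicates, a cutoff set 3 SD above the mean; inconclusive = above 25% in only one replicate; inactive = the rest.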
MEASURED_METRIC: growth inhibition

Guide cases for growth inhibition, answers given:
| COMPOUND_SMILES | ASSAY_VALUE |
| --- | --- |
| Cc1c(NC(=O)OCCSc2nc(N(C)C)nc(N(C)C)n2)sc(=S)n1C | 2.93% (inactive) |
| COc1ccccc1CC(=O)N1CCN(c2cccc(C(F)(F)F)c2)CC1 | -9.59% (inactive) |
| O=C1CCC(=O)N1c1cccc(-c2nc3ccccc3o2)c1 | -7.93% (inactive) |

// next entry
# input Given "O=S(=O)(c1ccc(Br)cc1)N1CCn2c(nc3ccccc32)C1" , respond with its growth inhibition.
# output -6.87% (inactive)

* * *

Exercise: state measured viability for each of the compounds provided.
# TEST: growth suppression of PTEN-deleted HCT116, pilot screen, cell-based, HCT116 clonal line, CellTiter-Glo (AID 824);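 note: 0% = 20 µM Hyamine control and 100% = vehicle cell control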
# TEST_CONDITIONS: 60 h, at 10 µM, hits give low values
Inconclusive results are not listed.
Numbers only, in %.

| COMPOUND | viability, % |
| --- | --- |
| Cc1ccc(OS(=O)Nc2cccc3nccnc23)cc1 (stereo not drawn) | 55 |

Dear colleague, could you please provide viability for the compounds listed below?
1. Cc1nc2ccccc2c2oc(C(=O)Nc3ccc4c(c3)OCCO4)cc12
2. COc1cc(OC)c(C2Oc3nc(SC)nnc3-c3ccccc3N2C(C)=O)cc1OC (stereo not drawn)

# output
1: 95.3; 2: 108

* * *

# TEST: viability gain of MRP-1-high H69AR cells under doxorubicin, pilot screen, MRP-1 activator project, CellTiter-Glo, duplicate (AID 807);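 note: compound pretreatment 18-22 h then 72 h combined with doxorubicin; 0% = doxorubicin alone and 100% = vehicle without doxorubicin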
# TEST_CONDITIONS: H69AR viability with doxorubicin, CellTiter-Glo luminescence; at 10 µM; hits give high values
MEASURED_METRIC: viability increase (%)
One number for each entry, in %.

| COMPOUND | ASSAY_VALUE |
| --- | --- |
| COc1ccc(Cl)cc1N(CC(=O)N1CCN(Cc2ccccc2)CC1)S(C)(=O)=O | -0.51 |

Dear colleague, could you please provide viability increase for the compounds listed below?
1. CCOC(=O)c1sc2nc3n(c(=O)c2c1C)CCCCC3
2. CCCS(=O)(=O)c1nc(S(=O)(=O)c2ccc(C)cc2)c(NCCN2CCOCC2)s1
3. Cn1c(SCC(=O)NCC2CCCO2)nc2c([nH]c3ccccc32)c1=O (stereo unspecified)
4. Brc1ccc(CSc2nnc(-c3ccccn3)n2Cc2ccco2)cc1
5. Cc1c(C(=O)NCc2cccnc2)oc2ccc(S(=O)(=O)N3CC(C)CC(C)C3)cc12 (stereo unspecified)
6. Cc1ccc(-c2cc(C(F)(F)F)n3ncc(C(=O)NCc4ccco4)c3n2)cc1

# output
1. 6.25
2. -0.11
3. -5.32
4. -3.69
5. -4.52
6. -5.85

Dear colleague, could you please provide viability increase for the compounds listed below?
1. N#CC1=C(N)OC2=C(C(=O)CCC2)C1c1ccsc1 (stereo unspecified)
2. COC(=O)Cn1c(=NC(=O)C2CC2)sc2c(C)cc(C)cc21
3. CCCc1cc(C(=O)Nc2cc(Br)ccc2O)no1
4. CCOC(=O)c1cc(-c2nnc(-c3ccc(Cl)cc3)o2)c(C)nc1C
5. CCOC(=O)C1=C(C)NC(=O)NC1c1ccc(N(C)C)cc1 (stereo unspecified)

# output
1: -1.81; 2: -2.07; 3: -4.83; 4: -0.9; 5: -2.7

Dear colleague, could you please provide viability increase for the compounds listed below?
1. Cc1nn(C)cc1CN(C)C(=O)c1sc2cccc(Cl)c2c1Cl
2. CCCC1(C(=O)O)NC(c2cccc(OC)c2O)C2C(=O)N(c3ccccc3)C(=O)C21 (stereo unspecified)
3. COc1ccc(C2/C(=C(/O)c3ccc(F)cc3)C(=O)C(=O)N2CCCN(C)C)cc1 (stereo unspecified)
4. COC(=O)CSC1=C(C#N)C(c2ccccc2F)CC(=O)N1 (stereo unspecified)

# output
1. 0.61
2. -0.36
3. -2.11
4. -2.29

* * *

Exercise: state measured viability increase for each of the compounds provided.
# TEST: viability gain of MRP-1-high H69AR cells under doxorubicin, pilot screen, MRP-1 activator project, CellTiter-Glo, duplicate (AID 807);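 note: compound pretreatment 18-22 h then 72 h combined with doxorubicin; 0% = doxorubicin alone and 100% = vehicle without doxorubicin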
# TEST_CONDITIONS: H69AR viability with doxorubicin, CellTiter-Glo luminescence; at 10 µM; hits give high values
The source made the active and inactive calls.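 The calls were made as follows: active = viability increase at or above a cutoff of the median across tested compounds plus 3 SD (cut at about 8.5% in these data, passing the limit was not always enough); inconclusive = some gains above the cutoff, reason not given; inactive = the rest.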

Dear colleague, could you please provide viability increase for the compounds listed below?
1. O=C(COC(=O)c1ccc(S(=O)(=O)N2CCOCC2)cc1)NC1CCCCCC1
2. O=C(c1ccc(S(=O)(=O)N2CCCC2)cc1)N1CCCc2ccccc21

# output
["0.74% (inactive)", "-4.87% (inactive)"]

Dear colleague, could you please provide viability increase for the compounds listed below?
1. CCOc1cc2[nH]c(=O)n(Cc3ccc(C(=O)NCCOC)cc3)c(=O)c2cc1OCC
2. COc1ccc(S(=O)(=O)NCC2CCC(C(=O)N3CCC4(CC3)OCCO4)CC2)cc1 (configuration not stated)
3. CCCc1cc(C(=O)Nc2cccc(C(C)=O)c2)no1
4. CCN1CCN(c2ncnc3c2cnn3-c2ccccc2)CC1
5. CC1CCCN(C(C(=O)Nc2ccc3c(c2)OCO3)c2ccccc2)C1 (configuration not stated)
6. N#Cc1nc(-c2ccccc2F)oc1NC1CCCCC1
7. Cc1ccc(C)c(S(=O)(=O)NC(CC(C)C)C(=O)O)c1 (configuration not stated)
8. CCCCCSc1nc2c(c(=O)[nH]c(=O)n2C)n1C(C)C

# output
["-1.54% (inactive)", "-1.38% (inactive)", "0.44% (inactive)", "1.69% (inactive)", "-3.45% (inactive)", "-2.53% (inactive)", "-1.32% (inactive)", "1.12% (inactive)"]

Dear colleague, could you please provide viability increase for the compounds listed below?
1. [O-]/[N+](=C/c1cccnc1)c1ccc(Br)cc1
2. O=C(CSc1nnc(-c2ccccn2)n1Cc1ccco1)c1ccc(Cl)cc1

# output
1. -4.72% (inactive)
2. -2.56% (inactive)

* * *

Exercise: state measured viability increase for each of the molecules provided.
# TEST: viability gain of MRP-1-high H69AR cells under doxorubicin, pilot screen, MRP-1 activator project, CellTiter-Glo, duplicate (AID 807);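 note: compound pretreatment 18-22 h then 72 h combined with doxorubicin; 0% = doxorubicin alone and 100% = vehicle without doxorubicin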
# TEST_CONDITIONS: H69AR viability with doxorubicin, CellTiter-Glo luminescence; at 10 µM; hits give high values
One number for each entry, in %.

Dear colleague, could you please provide viability increase for the molecules listed below?
1. COc1ccc(CCNC(=O)CN2CCOc3ccccc32)cc1OC
2. O=c1[nH]c2ccc(Cl)cc2c(-c2ccccc2)c1N1CCOCC1
3. COc1ccc(N(C)S(=O)(=O)c2cccc(C(=O)NC3=NCCS3)c2)cc1
4. COC(=O)C1(C)Nc2ccccc2C(=O)N1c1ccccc1OC (configuration not stated)
5. COC(=O)c1c(C)nc(C)c2c(=O)oc3ccccc3c12
6. Cc1ccc(C(=O)NCCn2cc(SCC(=O)Nc3nnc(C)s3)c3ccccc32)cc1
7. COc1ccc(NC(=O)C(CC(=O)O)Cc2ccccc2)cc1 (configuration not stated)
8. COc1cc2c(cc1OC)C(C(=O)Nc1ccc3c(c1)OCCO3)C(c1cccnc1)N(C)C2=O (configuration not stated)

# output
1: -6.27; 2: -3.04; 3: -1.55; 4: -0.77; 5: 0.64; 6: 2.91; 7: -0.09; 8: -6.9

Dear colleague, could you please provide viability increase for the molecules listed below?
1. O=C(Nc1cnc2ccccc2c1)c1cccnc1
2. C=CCn1c(NC(C)c2cc(Cl)ccc2O)nc2ccccc21 (configuration not stated)
3. O=C(c1cc(-c2ccc(Cl)c(Cl)c2)on1)N1CCCC1
4. Cc1nn(C)c(C)c1S(=O)(=O)N(CC(=O)Nc1ccc2c(c1)OCO2)c1ccc(C(C)C)cc1

# output
1: -7.98; 2: -0.96; 3: 4.2; 4: -2.38

* * *

# TEST: RAM signaling pathway blockade in yeast – S. cerevisiae, Pdr1DBD-CYC8 efflux-inhibited sensitized strain, primary screen (AID 1298);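 note: 0% = DMSO untreated cells without growth and 100% = 10 µM 1-NA-PP1 full growth; higher means more yeast growth rescued from 5-FOA killing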
# TEST_CONDITIONS: S. cerevisiae cbk1-as DSE1-URA3 strain, 5-FOA growth OD615, 2 d; at 50 µM; hits give high values
Calls of active or inactive are those of the source.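 The calls were made as follows: active = RAM network inhibition above 8.4% in each of two replicates, 3 SD over the compound average; inconclusive = above 8.4% inhibition in only one replicate; inactive = 8.4% inhibition or less in each replicate.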
Exercise: state measured RAM network inhibition for each of the molecules provided.

Guide cases for RAM network inhibition, answers given:
| MOLECULE | RAM network inhibition |
| --- | --- |
| COCCCN1C(=O)C(O)=C(C(=O)c2ccc(C)o2)C1c1cccc(Br)c1 (stereo unspecified) | 4.3% (inactive) |
| CCC(Sc1nncn1C)C(=O)Nc1nnc(-c2ccc(Cl)cc2)s1 (stereo unspecified) | 4.37% (inactive) |
| Brc1ccc(-c2nc(-c3ccccn3)no2)o1 | 2.05% (inactive) |
| CCN1CCN(C(=O)Nc2ccc(Cc3ccc(NC(=O)N4CCN(CC)CC4)cc3)cc2)CC1 | 2.65% (inactive) |
| N#Cc1nc(COc2ccccc2F)oc1NCc1ccc(F)cc1 | 8.3% (inactive) |
| CSc1ncccc1C(=O)OCC(=O)c1cc2ccccc2o1 | 4.75% (inactive) |
| O=C1c2ccccc2C(=O)N1CCc1nc2ccccc2c(=O)n1Cc1ccco1 | 1.59% (inactive) |
| CCc1nc(C)cn1S(=O)(=O)c1cc(C)c(OC)cc1C | 12.1% (inactive) |

Dear colleague, could you please provide RAM network inhibition for the molecules listed below?
1. Cc1ccc(SCC(=O)NCC(C)C)cc1
2. Cc1c(C#N)c2ccccc2n1CCOc1ccccc1F
3. CSc1ccc(C2C(C#N)=C(N)N(c3ccccc3)C3=C2C(=O)CCC3)cc1 (stereo unspecified)
4. COc1cc(NS(=O)(=O)c2ccc3c(c2)oc(=O)n3C)cc(OC)c1OC
5. CCOc1ccc(C2C(C(=O)NC)=C(C)Nc3nc4ccccc4n32)cc1OC (stereo unspecified)
6. COc1cc2c(cc1OC)C(c1ccco1)CC(=O)N2 (stereo unspecified)

# output
1. 0.68% (inactive)
2. 6.77% (inactive)
3. 2.23% (inactive)
4. 2.41% (inactive)
5. 2.01% (inactive)
6. 3.34% (inactive)

Dear colleague, could you please provide RAM network inhibition for the molecules listed below?
1. Oc1c(C(c2ccccc2)N2CCN(Cc3ccccc3)CC2)sc2ncnn12 (stereo unspecified)
2. CCSc1nnc(NC(=O)CC)s1
3. O=C(O)CSC1c2ccccc2C(=O)N1Cc1ccccc1 (stereo unspecified)

# output
1: 0.68% (inactive); 2: -0.32% (inactive); 3: 0.3% (inactive)

Dear colleague, could you please provide RAM network inhibition for the molecules listed below?
1. CC(=O)NCC(=O)OCC(=O)c1ccc(C)cc1
2. Cc1ccc(C(C)C)c(OCc2nc(-c3nonc3N)no2)c1
3. CCCC(=O)c1c(NC)cc(C)oc1=O
4. Cc1noc(NS(=O)(=O)c2ccc(NC(=O)c3cnc4scc(C)n4c3=O)cc2)c1C
5. CCn1cc(C(=O)N2CC(C)CC(C)C2)c(=O)c2cc(S(=O)(=O)N(C)C)ccc21 (stereo unspecified)

# output
["-0.06% (inactive)", "3.09% (inactive)", "3.99% (inactive)", "6.1% (inactive)", "2.78% (inactive)"]

Dear colleague, could you please provide RAM network inhibition for the molecules listed below?
1. COc1ccc2c(=O)c(N3C(=O)c4ccccc4C3=O)c(C)oc2c1
2. Cc1cccn2c(=O)c3cc(C#N)c(=NC(=O)c4ccccc4)n(Cc4ccco4)c3nc12
3. CC(=O)NC(CCS(C)(=O)=O)C(=O)Nc1cccc(Cl)c1Cl (stereo unspecified)
4. CC1=C(C(=O)OC(C)C)C(c2cccnc2)n2ncnc2N1 (stereo unspecified)
5. CCCCOC(=O)C(C)Oc1ccc(=O)n(-c2ccccc2)n1 (stereo unspecified)

# output
1: 1.33% (inactive); 2: 4.04% (inactive); 3: -0.83% (inactive); 4: 5.02% (inactive); 5: 2.76% (inactive)

Attribution: PubChem BioAssay
